Test system: U2OS
Assay: Multiplex assay against U2OS
Assay type: toxicity, cell-based
Conditions: human, 48 h, 10 µM, compound concentration 10 uM
reportedMetric: Population Pyknosed Nuclei (%)
Give bare numbers, in %.

The following compounds have reported results that may help.
# smilesEntry, measurementUnits, Population Pyknosed Nuclei (%)
data = [
    ("Cc1c(CC(=O)O)c2cccnc2n1Cc1ccc(S(C)(=O)=O)cc1C(F)(F)F", "%", 8),
    ("NCCc1cn(S(=O)(=O)c2c(Cl)nc3sccn23)c2ccccc12.O=C(O)C(=O)O", "%", 35),
    ("c1cc(OCCCN2CCCCC2)ccc1CN1CCCCC1", "%", 6),
]

Consider now this further compound.
Sure, the documented Population Pyknosed Nuclei (%) for `Cc1c(Cc2ccc3ccccc3n2)c2cc(F)ccc2n1CC(=O)O` is 6
